# Test system: S. aureus ATCC 29213
# assay_notes: Broth microdilution MIC, ATCC QC organism (Example 12)
# Format: cell-based, Staphylococcus aureus
# assay_setup: S. aureus ATCC 29213, QC organism
Quick reference for MIC among some molecules

Recorded MIC, per entry:
• C[C@H]1COc2c(N3CCN(C)CC3)c(F)cc3c(=O)c(C(=O)O)cn1c23 [LVX] = 0.06 µg/mL
• CCC[C@@H]1C[C@@H](C(=O)N[C@@H]([C@H]2O[C@H](SC)[C@H](O)[C@@H](O)[C@H]2O)[C@H](C)Cl)N(C)C1 [CLI] = 0.25 µg/mL
• CCCCCCCCCC(=O)NC(Cc1c[nH]c2ccccc12)C(=O)NC(CC(N)=O)C(=O)NC(CC(=O)O)C(=O)NC1C(=O)NCC(=O)NC(CCCN)C(=O)NC(CC(=O)O)C(=O)NC(C)C(=O)NC(CC(=O)O)C(=O)NCC(=O)NC(CO)C(=O)NC(C(C)CC(=O)O)C(=O)NC(CC(=O)c2ccccc2N)C(=O)OC1C (centres unmarked) [DAP] = 0.5 µg/mL
• CN[C@H](CC(C)C)C(=O)N[C@H]1C(=O)N[C@@H](CC(N)=O)C(=O)N[C@H]2C(=O)N[C@H]3C(=O)N[C@H](C(=O)N[C@H](C(=O)O)c4cc(O)cc(O)c4-c4cc3ccc4O)[C@H](O)c3ccc(c(Cl)c3)Oc3cc2cc(c3O[C@@H]2O[C@H](CO)[C@@H](O)[C@H](O)[C@H]2O[C@H]2C[C@](C)(N)[C@H](O)[C@H](C)O2)Oc2ccc(cc2Cl)[C@H]1O [VAN] = 0.5 µg/mL

Could you now look at the following molecule, please?
# input molecule: CC(=O)NC[C@H]1CN(c2ccc(N3CCOCC3)c(F)c2)C(=O)O1 [LZD] ; wanted: its MIC 4 µg/mL
